- assay-method-text: MTT assay, non-cancer cells BCRC60118
- Assay type: cell-based
- test-context: human, embryonic fibroblast cells BCRC60118 (non-cancer), 60 μg/ml, read-out: cell viability of non-cancer cells
assay-endpoint: viability at 24 h, 60 μg/ml
Record the result as number plus unit.

Exercise: Field request: viability at 24 h, 60 μg/ml | item: CC1=C(/C=C/C(C)=C/C=C/C(C)=C/C=C/C=C(C)/C=C/C=C(C)/C=C/C2=C(C)C[C@@H](O)CC2(C)C)C(C)(C)C[C@H](O)C1 (stereo in doubt)
Key: 101%

----------
- assay-method-text: MTT assay, non-cancer cells ARPE-19
- Type: cell-based
- test-context: human, ARPE-19 retinal pigmented epithelium cells (non-cancer), 60 μg/ml, read-out: cell viability of non-cancer cells
assay-endpoint: viability at 24 h, 60 μg/ml (%)
Write the number in % without appending the unit.

Exercise: Field request: viability at 24 h, 60 μg/ml | item: CC1=C(/C=C/C(C)=C/C=C/C(C)=C/C=C/C=C(C)/C=C/C=C(C)/C=C/C2=C(C)C[C@@H](O)CC2(C)C)C(C)(C)C[C@H](O)C1 (stereo in doubt)
Key: 124
